Target: Cytochrome P450 2D6 (Homo sapiens) (UniProt P10635)
Sequence (P10635 whole entry, looked up): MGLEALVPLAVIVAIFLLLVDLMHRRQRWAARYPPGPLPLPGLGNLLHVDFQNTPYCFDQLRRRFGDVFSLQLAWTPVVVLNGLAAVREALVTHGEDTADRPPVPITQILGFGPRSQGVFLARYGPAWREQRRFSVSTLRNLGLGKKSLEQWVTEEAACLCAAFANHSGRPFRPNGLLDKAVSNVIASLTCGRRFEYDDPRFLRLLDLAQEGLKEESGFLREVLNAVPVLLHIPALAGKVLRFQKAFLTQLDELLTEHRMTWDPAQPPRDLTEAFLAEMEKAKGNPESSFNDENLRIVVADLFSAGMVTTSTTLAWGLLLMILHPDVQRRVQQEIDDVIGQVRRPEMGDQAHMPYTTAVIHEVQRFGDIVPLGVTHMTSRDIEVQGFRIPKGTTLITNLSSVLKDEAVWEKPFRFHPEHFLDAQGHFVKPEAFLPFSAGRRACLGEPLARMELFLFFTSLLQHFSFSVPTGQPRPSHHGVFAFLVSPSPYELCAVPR
Assay: Cytochrome panel assay with activity outcomes
Conditions: recombinant CYP, pro-luciferin dealkylation, luminescence, p450-cyp2d6; series mostly up to 57.1 µM
Method: The P450 gene superfamily is involved in the metabolism and clearance of xenobiotics. This assay used various human CYP P450 isozymes to measure the dealkylation of various pro-luciferin substrates to luciferin. The luciferin is then measured by luminescence after the addition of a luciferase detection reagent. […] Inhibitors and some substrates limit the production of luciferin, and decrease measured luminescence. […] 8, Detection, 1 sec, ViewLux luminescent read […]
The campaign covered roughly 16,000 compounds. About 2,600 (16%) were called active. Another 20% or so got no clear call; they are omitted. Calls follow the shape of the dose curve; as a rule, active = well fitted curve in the direction sought with a large enough effect; inconclusive = small, poorly fitted or top-dose-only effect, or effect the other way; inactive = no such curve, though single readings can be large or run the other way. A selection follows.
Classes used: active, inactive

Cc1ccc(N=Nc2c(N)n(-c3ccccc3)[nH]c2=O)cc1
inactive
Cc1nn(C)c(Cl)c1NC(=O)OCc1ccc(Cl)cc1Cl
inactive
COc1ccc(C(=O)Nc2ccc(F)cc2F)cc1OC
inactive
Clc1ccc(CO[C@@H](Cn2ccnc2)c2ccc(Cl)cc2Cl)cc1
active
COc1ccc(N2C(=O)CCC(C(=O)Nc3ccccn3)C2c2ccc(OC)c(OC)c2)cc1 (stereo unspecified)
inactive
C[n+]1ccc(/C=C/c2ccc(Br)cc2)cc1
inactive
Cc1ccc(C)c(OCCCC(C)(C)C(=O)O)c1
inactive
CN1CCC[C@@H](CC2c3ccccc3Sc3ccccc32)C1
active
CCCCCCCC/C=C\CCCCCCCC(=O)N[C@@H](CO)Cc1ccc(O)cc1
active
CCCc1nnc(NC(=O)CCC(=O)NCc2ccccc2OC)s1
inactive
COC(=O)[C@@]1(Cc2ccc(F)cc2)[C@@H]2C(=CC(=O)[C@H]2CC(=O)C(=O)N2CCCC2)CN1C(=O)c1ccccc1
inactive
CCN1CCN(C(=S)c2ccc(Br)cc2)CC1
active
Cc1cccc(NC(=O)c2ccc([N+](=O)[O-])o2)n1
inactive
O=C1C(Cl)=C(Nc2ccc(S(=O)(=O)Nc3ccccn3)cc2)C(=O)c2ccccc21
active
Cc1ccccc1NC(=S)NN1CCN(C)CC1
inactive
CCCCCCCCC(=O)NCc1cc(OC)c(O)cc1I
active

----------
target: Cytochrome P450 2D6 (Homo sapiens); experiment: Cytochrome panel assay with activity outcomes; settings: recombinant CYP, pro-luciferin dealkylation, luminescence, p450-cyp2d6; series mostly up to 57.1 µM
About 2,600 (16%) of roughly 16,000 compounds were called active. Another 20% or so got no clear call; they are omitted. Calls come from the whole dose curve; as a rule, active = well fitted curve in the direction sought with a large enough effect; inconclusive = small, poorly fitted or top-dose-only effect, or effect the other way; inactive = no such curve, though single readings can be large or run the other way. Only a sample is shown.
Possible outcomes: 1.0 (active), 0.0 (inactive)

CCOC(=O)N1CCN(C(=O)CSCc2nc(-c3ccccc3F)oc2C)CC1
0.0
C#C[C@]1(O)CC[C@@H]2[C@H]3CCc4cc(OC)ccc4[C@@H]3CC[C@@]21C
0.0
Cl/C(=C\n1cncn1)c1ccc(Cl)cc1Cl
0.0
Cc1cc(C)n(-c2ccc(F)cc2)c(=O)c1C(=O)O
0.0
CCOc1ccccc1C1C(C#N)=C(N)Oc2n[nH]c(CC)c21 (stereo not given)
0.0
Cc1ccc(S(=O)(=O)Nc2nc3ccccc3nc2N2CCc3ccccc3C2)cc1
0.0
COC(=O)N1CCC2(CCN(Cc3cc(C(F)(F)F)cc(C(F)(F)F)c3)CC2)CC1
1.0
COc1ccc2c3c([nH]c2c1)[C@@H]1C[C@@H]2[C@@H](C[C@H](O)[C@H](OC)[C@H]2C(=O)O)CN1CC3
0.0
Cc1ccc2[nH]c3c(N4CCc5ccccc5C4)ncnc3c2c1
1.0
CN(C)CCNc1ncnc2c1sc1nc(N3CCOCC3)c3c(c12)CC(C)(C)SC3
0.0
O=c1[nH]n(-c2cccc3cccnc23)c(=O)c2ccccc12
0.0
Cc1cc(C)cc(OCC(=O)NNC(=O)c2cc(C)[nH]n2)c1
0.0
CCN(CC)S(=O)(=O)c1cc(C(=O)Nc2ccccc2C(=O)O)ccc1OC
0.0
O=C(/C=C/c1ccc2c(c1)OCO2)NCCSCc1cccc(Cl)c1
1.0
COc1ccc(C(=O)N2CCC3(CCN(Cc4cc(C(F)(F)F)cc(C(F)(F)F)c4)CC3)CC2)cc1
0.0
Cc1ccc2c(c1)nnn2C1CCN(CC(=O)N2c3ccccc3CC2C)CC1 (stereo not given)
1.0
CCN(CC)S(=O)(=O)c1cc(C(=O)OC)ccc1Cl
0.0
Cc1nc2cnc(Oc3cccc(Cl)c3)nc2n(CCC#N)c1=O
0.0
Cc1ccc2cc(CCNC(=O)c3ccc(Br)o3)c(=O)[nH]c2c1
0.0
CN(C)C(=O)c1ccc(-c2nc(Nc3ccccc3)c3ccccc3n2)cc1
0.0
CCOC(=O)c1c(C)c(C(=O)N2CCCCCC2)c(C)n1C
1.0
CC1=C(C(=O)N2CCCCCC2)C2(CCC(C)CC2)OC1=O (stereo not given)
0.0
Cc1nn(-c2ccc(Cl)cc2)c2sc(C(=O)c3c(N)n(C)c(=O)n(C)c3=O)cc12
0.0
Cc1oc(-c2ccccc2F)nc1CSCC(=O)NCc1ccc2c(c1)OCO2
1.0
CC1(C)Cc2c(ccc3ccccc23)C(=O)N1
0.0

----------
biological target: Cytochrome P450 2D6 (Homo sapiens) (UniProt P10635); test: Cytochrome panel assay with activity outcomes; conditions: recombinant CYP, pro-luciferin dealkylation, luminescence, p450-cyp2d6; series mostly up to 57.1 µM; as to activity, negative = inhibition: % is scaled to controls: 0 for no effect and ±100 for the full control effect
The campaign covered roughly 16,000 compounds. About 2,600 (16%) were called active. Roughly 20% stayed inconclusive and do not appear here. Only a sample is shown.
Collected activity, negative = inhibition values appear next to each entry.
measurement.name: activity, negative = inhibition

CC(C)C(=O)Cc1ccc2ccccc2n1
5.06% [at 11.4 µM] (inactive)
COC(=O)[C@H](Cc1ccccc1)NC(=O)[C@@H](C)CO
3.71% [at 11.4 µM] (inactive)
Nc1ncnc2c1ncn2CCCCC(=O)O
-3.98% [at 11.4 µM] (inactive)
C[C@@H](CCC(=O)O)C(=O)O
1.74% [at 11.4 µM] (inactive)
NCS(=O)(=O)O
6.1% [at 11.4 µM] (inactive)
CCOC(=O)Nc1nc(-c2ccccc2)c(C)s1
1.52% [at 11.4 µM] (inactive)
FC(F)(F)c1cccc(-c2nc3nc(Cl)c(Cl)nc3[nH]2)c1
-1.57% [at 11.4 µM] (inactive)

----------
biological target: Cytochrome P450 2D6 (Homo sapiens); experiment: Cytochrome panel assay with activity outcomes; conditions: recombinant CYP, pro-luciferin dealkylation, luminescence, p450-cyp2d6; series mostly up to 57.1 µM
Hit rate of the full screen: of about 16,000 compounds, about 2,600 (16%) were called active. Roughly 20% stayed inconclusive and do not appear here. Calls follow the shape of the dose curve; as a rule, active = well fitted curve in the direction sought with a large enough effect; inconclusive = small, poorly fitted or top-dose-only effect, or effect the other way; inactive = no such curve, though single readings can be large or run the other way. Only a sample is shown.
Labels: active, inactive

CCOc1ccc(C(=O)Nc2ccccc2N2CCCC2)cc1
active
C=CCn1c(C(C)NC(=O)c2ccccc2)n[nH]c1=S (stereo not given)
inactive
COc1ccc(N2C(=O)NC3CC2(C)Oc2ccccc23)cc1OC (stereo not given)
inactive
CC(C)(C)C(=O)Nc1cccc(-c2nc3ccccc3c(=O)o2)c1
inactive
COCCn1c(=O)c(CCc2ccccc2)nc2cnc(Oc3cccc(Cl)c3)nc21
inactive
O=C(N/N=C/C1C(c2ccccc2)C1(Cl)Cl)c1cccc(Br)c1 (stereo not given)
active
NCCNC(=O)c1ccc(Cl)cc1
inactive
CCn1c(/C=C2/C(=O)N(C)c3ccccc32)nc2ccccc2c1=O
inactive
CCCCCN(CCCCC)C(=O)[C@H](CCC(=O)O)NC(=O)c1ccc(Cl)c(Cl)c1
inactive
COC(=O)CSc1ccc2nnc(-c3ccc(F)cc3)n2n1
inactive
Cc1cccc(C(CC(=O)N2CCCC2)c2ccccc2)c1O (stereo not given)
inactive
Cc1ccc(-n2nc(C)c3c2OC(N)=C(C#N)C3c2ccco2)cc1 (stereo not given)
inactive
CNc1nc(C)cc(C)c1S(=O)(=O)c1ccc(Cl)cc1
inactive
N#CCCn1c(=O)c(-c2cccs2)nc2cnc(OCc3ccccc3)nc21
inactive
O=C1C2Sc3[nH]c(=O)sc3C(c3ccccc3)C2C(=O)N1c1ccccc1 (stereo not given)
inactive

----------
Target: Cytochrome P450 2D6 (Homo sapiens) (UniProt P10635)
Experiment: Cytochrome panel assay with activity outcomes
Settings: recombinant CYP, pro-luciferin dealkylation, luminescence, p450-cyp2d6; series mostly up to 57.1 µM
Procedure: The P450 gene superfamily is involved in the metabolism and clearance of xenobiotics. This assay used various human CYP P450 isozymes to measure the dealkylation of various pro-luciferin substrates to luciferin. The luciferin is then measured by luminescence after the addition of a luciferase detection reagent. […] Inhibitors and some substrates limit the production of luciferin, and decrease measured luminescence. […] 8, Detection, 1 sec, ViewLux luminescent read […]
Hit rate of the full screen: of about 16,000 compounds, about 2,600 (16%) were called active. Another 20% or so got no clear call; they are omitted. The list is a sample of the results.
measurement.name: outcome

Nc1ccc(S(=O)(=O)Nc2ncccn2)cc1
inactive
COc1cccc(C2C3=C(CC(C)(C)CC3=O)OC(N)=C2[N+](=O)[O-])c1 (stereo not drawn)
inactive
COC(=O)COc1ccc(/C=C2/SC(=O)N(CC(=O)N3CCCC3)C2=O)cc1Br
inactive
